# target.or.system: UniProtKB P05089
# assay.protocol: Urea production in CHOK cells stably transfected with human-Arginase-1
# measurement.parameters: IC50 class, 5 mM arginine, 24 hours, read-out: CHOK Cell
reported.endpoint: IC50

Give IC50 for all molecules that follow.
1. NC(CCCCB(O)O)(C(=O)O)[C@H]1C[C@@H](NCc2ccccc2-c2ccc(Cl)cc2)C1 (stereo partly shown)
2. NC(CCCCB(O)O)(C(=O)O)[C@H]1C[C@@H](NCc2ccc(-c3ccc(Cl)cc3)cc2)C1 (stereo partly shown)
3. NC(CCCCB(O)O)(C(=O)O)[C@H]1C[C@@H](NCc2cccc(-c3ccccc3)c2F)C1 (mixture of isomers)
4. NC(CCCCB(O)O)(C(=O)O)[C@H]1C[C@@H](NCc2ccc(-c3ccc(Cl)cc3)cc2F)C1 (stereo partly shown)
5. NC(CCCCB(O)O)(C(=O)O)[C@H]1C[C@@H](NCc2ccc(Oc3ccc(Cl)cc3)cc2)C1 (stereo partly shown)
6. NC(CCCCB(O)O)(C(=O)O)C1CC2CCC(C1)N2Cc1ccccc1 (stereo not shown)
7. NC(CCCCB(O)O)(C(=O)O)[C@H]1C[C@@H](NCc2ccc(Cc3ccccc3)cc2)C1 (mixture of isomers)

1. 26 to 100 µM
2. 1 to 25 µM
3. 26 to 100 µM
4. 1 to 25 µM
5. 26 to 100 µM
6. 1 to 25 µM
7. 26 to 100 µM

====

# target.or.system: human-Arginase-1 (Homo sapiens, UniProt P05089)
# Sequence (P05089 1-322): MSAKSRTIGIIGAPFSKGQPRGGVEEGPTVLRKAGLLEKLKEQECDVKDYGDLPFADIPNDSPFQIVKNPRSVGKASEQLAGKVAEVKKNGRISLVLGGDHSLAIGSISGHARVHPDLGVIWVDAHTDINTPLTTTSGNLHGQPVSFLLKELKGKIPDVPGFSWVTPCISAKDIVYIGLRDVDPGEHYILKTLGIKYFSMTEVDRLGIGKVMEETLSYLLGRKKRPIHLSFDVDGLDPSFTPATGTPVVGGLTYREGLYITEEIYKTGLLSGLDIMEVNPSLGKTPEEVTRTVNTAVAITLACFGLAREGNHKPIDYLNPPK
# assay.protocol: Urea production in CHOK cells stably transfected with human-Arginase-1
# measurement.parameters: IC50 class, 5 mM arginine, 24 hours, read-out: CHOK Cell
# Description: Table 3 also provides CHOK cell based IC50 values for illustrative arginase inhibitors. IC50 values were determined by measuring the production of urea in CHOK cells stably transfected with human-Arginase-1. Briefly, CHOK cells were stably transfected with human-arginase-1. To determiner the IC50 values for compounds in accordance with the present invention, parental CHOK cells and arginase-1 stably transfected cells were plated in a 96 well plate. […]
pIC50: −log10 of the molar value.
I'd be grateful if you could share measured pIC50 for these entries.

Name the reported pIC50 value associated with the compound CC(C)(C)c1ccc(CN[C@H]2C[C@@H](C(N)(CCCCB(O)O)C(=O)O)C2)cc1 (stereo partly drawn)
4.00 to 4.59

Reported pIC50 for NC(CCCCB(O)O)(C(=O)O)[C@H]1C[C@@H](NCc2ccccc2N2CCOCC2)C1 (stereo partly drawn) : what is it?
4.00 to 4.59

Looking for the measured pIC50 of NC(CCCCB(O)O)(C(=O)O)[C@H]1C[C@@H](NCc2ccc(-c3ccc(Cl)cc3)c(F)c2)C1 (mixture of isomers) , can you help?
4.00 to 4.59

pIC50 lookup needed for NC(CCCCB(O)O)(C(=O)O)[C@H]1C[C@@H](NCc2ccc(-c3ccc(Cl)cc3)c(F)c2F)C1 (mixture of isomers) , thanks.
4.60 to 6.00

# get_value(readout='pIC50', item= CNC(CCCCB(O)O)(CCN1Cc2ccccc2C1)C(=O)O (stereo not drawn) )
4.60 to 6.00

What measured pIC50 goes with NC(CCCCB(O)O)(C(=O)O)[C@H]1C[C@@H](NCc2ccc(-c3ccc(Cl)c(Cl)c3)cc2)C1 (stereo partly drawn) ?
4.60 to 6.00

Using the record for NC(CCCCB(O)O)(C(=O)O)[C@H]1C[C@@H](NCc2c(F)cc(-c3ccc(Cl)cc3)cc2F)C1 (mixture of isomers) , report its pIC50.
4.60 to 6.00

Given the compound NC(CCCCB(O)O)(CCCN1Cc2ccccc2C1)C(=O)O (stereo not drawn) , what is its reported pIC50?
4.60 to 6.00

Query (compound): NC(CCCCB(O)O)(C(=O)O)[C@H]1C[C@@H](NC2Cc3ccccc3C2)C1 (stereo partly drawn) ; field requested: pIC50
4.60 to 6.00

pIC50 lookup needed for `CCN(CC)CC[C@](N)(CCCCB(O)O)C(=O)O` , thanks.
4.60 to 6.00

// for each compound below, give its pIC50
1. NC(CCCCB(O)O)(C(=O)O)[C@H]1C[C@@H](NCc2ccc3c(c2)CCO3)C1 (stereo partly drawn)
2. NC(CCCCB(O)O)(C(=O)O)[C@H]1C[C@@H](NCC2CCN(c3ccc(C(F)(F)F)cc3)CC2)C1 (mixture of isomers)

["4.60 to 6.00", "4.00 to 4.59"]

Go through the list and state pIC50 for each entry.
1. NC(CCCCB(O)O)(C(=O)O)C1CC2CCC(C1)N2Cc1ccc(F)c(F)c1 (stereo not drawn)
2. NC(CCCCB(O)O)(C(=O)O)[C@H]1C[C@@H](NCc2ccc(-c3ccc(F)cc3)c(F)c2)C1 (mixture of isomers)
3. NC(CCCCB(O)O)(C(=O)O)[C@H]1C[C@@H](NCc2ccc(-c3ccccc3)nc2)C1 (stereo partly drawn)
4. NC(CCCCB(O)O)(C(=O)O)[C@H]1C[C@@H](N(Cc2ccccc2)Cc2ccccc2)C1 (stereo partly drawn)

1. 4.60 to 6.00
2. 4.00 to 4.59
3. 4.60 to 6.00
4. 4.00 to 4.59

For every record below, what is its pIC50?
1. NC(CCCCB(O)O)(C(=O)O)[C@H]1C[C@@H](NCc2ccc(-c3ccccc3F)c(F)c2)C1 (mixture of isomers)
2. CNC(CCCCB(O)O)(CCN1CCC(C)CC1)C(=O)O (stereo not drawn)
3. CNC(CCCCB(O)O)(CCNCc1ccc(Cl)c(Cl)c1)C(=O)O (stereo not drawn)
4. NC(CCCCB(O)O)(C(=O)O)[C@H]1C[C@@H](NCc2cccc(-c3ccc(C(F)(F)F)cc3)c2)C1 (stereo partly drawn)
5. NC(CCCCB(O)O)(C(=O)O)[C@H]1C[C@@H](NCc2ccc(-c3ccc(C(F)(F)F)cc3)cc2)C1 (stereo partly drawn)

1. 4.00 to 4.59
2. 4.00 to 4.59
3. 4.00 to 4.59
4. 4.60 to 6.00
5. 4.60 to 6.00

====

Sequence of the target: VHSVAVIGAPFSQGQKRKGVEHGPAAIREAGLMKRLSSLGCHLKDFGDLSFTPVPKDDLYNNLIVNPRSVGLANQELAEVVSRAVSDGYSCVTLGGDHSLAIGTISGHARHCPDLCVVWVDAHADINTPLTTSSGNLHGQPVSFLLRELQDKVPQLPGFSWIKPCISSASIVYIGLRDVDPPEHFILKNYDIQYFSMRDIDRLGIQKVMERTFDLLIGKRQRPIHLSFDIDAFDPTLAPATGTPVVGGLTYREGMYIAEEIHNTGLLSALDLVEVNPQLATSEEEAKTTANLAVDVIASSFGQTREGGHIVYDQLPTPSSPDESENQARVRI
Provide the reported IC50 of each item.

Worked examples follow.
Name the reported IC50 value associated with the molecule `N[C@](CCCCB(O)O)(CCN1Cc2ccccc2C1)C(=O)O`
501 to 1500 nM

Please look up its IC50: NC(CCCCB(O)O)(C(=O)O)[C@H]1C[C@@H](NCc2c(F)cc(-c3ccc(Cl)cc3)cc2F)C1 (mixture of isomers)
26 to 100 nM

// returns reported IC50 for input NC(CCCCB(O)O)(C(=O)O)[C@H]1C[C@@H](NCCc2ccc(Cl)cc2Cl)C1 (stereo partly shown)
26 to 100 nM

Others:
Requested field: IC50. Item: NC(CCCCB(O)O)(C(=O)O)[C@H]1C[C@@H](NCc2ccc(-c3ccc(Cl)cc3)cc2F)C1 (stereo partly shown)
0.1 to 25 nM

====

# target.or.system: human-Arginase-1 (Homo sapiens)
# Sequence (P05089 1-322): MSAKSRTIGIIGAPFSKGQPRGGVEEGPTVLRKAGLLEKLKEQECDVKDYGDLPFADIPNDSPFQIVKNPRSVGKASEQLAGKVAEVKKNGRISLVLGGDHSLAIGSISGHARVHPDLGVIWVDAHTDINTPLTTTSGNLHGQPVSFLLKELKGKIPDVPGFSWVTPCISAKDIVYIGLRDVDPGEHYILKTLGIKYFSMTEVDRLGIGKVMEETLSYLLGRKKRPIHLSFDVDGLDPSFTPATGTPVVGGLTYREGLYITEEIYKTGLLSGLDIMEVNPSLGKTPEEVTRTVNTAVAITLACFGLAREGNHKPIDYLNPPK
# assay.protocol: Urea production in CHOK cells stably transfected with human-Arginase-1
# measurement.parameters: IC50 class, 5 mM arginine, 24 hours, read-out: CHOK Cell
reported.endpoint: IC50

IC50 for CCN(CCO)CC[C@](N)(CCCCB(O)O)C(=O)O [Example 67] ?
1 to 25 µM

Look up IC50 for the entries below, preserving their order.
1. NC(CCCCB(O)O)(C(=O)O)[C@H]1CC[C@H](NCc2ccc(-c3ccccc3)cc2)C1 (stereo in doubt) [Example 43]
2. NC(CCCCB(O)O)(C(=O)O)[C@H]1CC[C@@H](NCc2ccc(-c3ccccc3)cc2)C1 (stereo partly drawn) [Example 44]

26 to 100 µM
26 to 100 µM

The origin of these recorded values is patent US9266908B2.
